Ref: patent US20010038824A1

- System: Aspegillus fumigatus CF1003
- experiment.notes: In vitro antifungal activity, broth micro-dilution
- Format: cell-based
- assay.setup: YNB medium with 0.2% agarose, 1-2 days at 35° C.
Numbered stars: 1 amine (or outer) side, 2 acyl side, 3 side chain; on linkers, the order of the positions; unused ones are H or OH. Bridge positions count the residues as written; N and C are the ends. Square brackets hold non-standard residues; d marks the D form. Peptide text beside a SMILES is read from it. * marks the point of attachment. ξ: configuration not given here. X9 = O=C(C[C@@H](CCc1ccc(-c2ccc(OCCCc3ccccc3)cc2)cc1)N[*:2])[*:1]; X11 = CCCCCOc1ccc(-c2ccc(CC[C@H](CC(=O)[*:1])N[*:2])cc2)cc1; X6 = NCCC[C@H](N)C(=O)N(CCCN)CCCC(N[*:1])C(=O)[*:2]; ξTyr(3-NO2) = NC(Cc1ccc(O)c([N+](=O)[O-])c1)C(=O)O; X15 = CCCCCCCCCCCCCCC[C@H](CC(=O)[*:2])N(C)[*:1]; X4 = CCCCCCCCCCCCC[C@H](CC(=O)[*:1])O[*:2]; X3 = NCCCN(CCCC(N[*:1])C(=O)[*:2])[*:3]; X2 = NC(=O)CC(O)C(N[*:1])C(=O)[*:2]; X12 = CN(C)CCCC(N[*:1])C(=O)[*:2]; X1 = O=C(C1C(O)CCN1[*:1])[*:2]; ξOrn(3-OH) = NCCC(O)C(N)C(=O)O; ξY = NC(Cc1ccc(O)cc1)C(=O)O; X14 = NCCCNC(CCCN)C(=O)*; X13 = CCCCCCCCCCCCCCCN*; ξHyp = O=C(O)C1CC(O)CN1; ξOrn = NCCCC(N)C(=O)O; ξT = CC(O)C(N)C(=O)O; ξV = CC(C)C(N)C(=O)O; ξA = CC(N)C(=O)O
Overview of reported In vitro Antifungal activity, IC50, Aspegillus fumigatus CF1003 across a group of molecules:
assay.readout: In vitro Antifungal activity, IC50, Aspegillus fumigatus CF1003 (mg/L)

molecule="CCCCCOc1ccc(-c2ccc(CC[C@@H]3CC(=O)NC(C(C)O)C(=O)NC(C)C(=O)NC(Cc4ccc(O)c([N+](=O)[O-])c4)C(=O)NC(C(C)C)C(=O)N4CC(O)CC4C(=O)NC(C(C)O)C(=O)NC(C(C)O)C(=O)N4CCC(O)C4C(=O)NC(C(O)CC(N)=O)C(=O)NCC(=O)NC(C(C)O)C(=O)NC(CCCN)C(=O)N3)cc2)cc1 (some centres unmarked) [Aerothricin 54] ([ξT][ξA][ξTyr(3-NO2)][ξV][ξHyp][ξT][ξT][X1][X2]G[ξT][ξOrn]; linker N-C via X11)" target_or_system="Aspegillus fumigatus CF1003" result_units=mg/L value_observed=0.17
molecule="CCCCCCCCCCCCCCCNC(=O)[C@@H]1CC(=O)NC(C(C)O)C(=O)NC(C)C(=O)NC(Cc2ccc(O)c([N+](=O)[O-])c2)C(=O)NC(C(C)C)C(=O)N2CC(O)CC2C(=O)NC(C(C)O)C(=O)NC(C(C)O)C(=O)N2CCC(O)C2C(=O)NC(C(O)CC(N)=O)C(=O)NCC(=O)NC(C(C)O)C(=O)NC(CCCN)C(=O)N1 (stereo partly drawn) [Aerothricin 77] ([ξT][ξA][ξTyr(3-NO2)][ξV][ξHyp][ξT][ξT][X1][X2]G[ξT][ξOrn]D-X13; lactam N-13)" target_or_system="Aspegillus fumigatus CF1003" result_units=mg/L value_observed=0.10
molecule="CCCCCCCCCCCCC[C@@H]1CC(=O)NC(C(C)O)C(=O)NC(C)C(=O)NC(Cc2ccc(OC)cc2)C(=O)NC(C(C)C)C(=O)N2CC(O)CC2C(=O)NC(C(C)O)C(=O)NC(C(C)O)C(=O)N2CCC(O)C2C(=O)NC(C(O)CC(N)=O)C(=O)NCC(=O)NC(C(C)O)C(=O)NC(CCCN(C)C)C(=O)O1 (some centres unmarked) [Aerothricin 12] ([ξT][ξA][ξY](Me)[ξV][ξHyp][ξT][ξT][X1][X2]G[ξT][X12]; linker N-C via X4)" target_or_system="Aspegillus fumigatus CF1003" result_units=mg/L value_observed=0.10
molecule="CC1NC(=O)C(C(C)O)NC(=O)C[C@@H](CCc2ccc(-c3ccc(OCCCc4ccccc4)cc3)cc2)NC(=O)C(CCCN)NC(=O)C(C(C)O)NC(=O)CNC(=O)C(C(O)CC(N)=O)NC(=O)C2C(O)CCN2C(=O)C(C(C)O)NC(=O)C(C(C)O)NC(=O)C2CC(O)CN2C(=O)C(C(C)C)NC(=O)C(Cc2ccc(O)cc2)NC1=O (some centres unmarked) [Aerothricin 46] ([ξT][ξA][ξY][ξV][ξHyp][ξT][ξT][X1][X2]G[ξT][ξOrn]; linker N-C via X9)" target_or_system="Aspegillus fumigatus CF1003" result_units=mg/L value_observed=0.08
molecule="CCCCCOc1ccc(-c2ccc(CC[C@@H]3CC(=O)NC(C(C)O)C(=O)NC(C)C(=O)NC(Cc4ccc(O)cc4)C(=O)NC(C(C)C)C(=O)N4CC(O)CC4C(=O)NC(C(C)O)C(=O)NC(C(C)O)C(=O)N4CCC(O)C4C(=O)NC(C(O)CC(N)=O)C(=O)NCC(=O)NC(C(C)O)C(=O)NC(CCCN)C(=O)N3)cc2)cc1 (some centres unmarked) [Aerothricin 41] ([ξT][ξA][ξY][ξV][ξHyp][ξT][ξT][X1][X2]G[ξT][ξOrn]; linker N-C via X11)" target_or_system="Aspegillus fumigatus CF1003" result_units=mg/L value_observed=0.03
molecule="CCCCCCCCCCOc1ccc(CC[C@@H]2CC(=O)NC(C(C)O)C(=O)NC(C)C(=O)NC(Cc3ccc(O)cc3)C(=O)NC(C(C)C)C(=O)N3CC(O)CC3C(=O)NC(C(C)O)C(=O)NC(C(C)O)C(=O)N3CCC(O)C3C(=O)NC(C(O)CC(N)=O)C(=O)NCC(=O)NC(C(C)O)C(=O)NC(CCCN)C(=O)N2)cc1 (some centres unmarked) [Aerothricin 36]" target_or_system="Aspegillus fumigatus CF1003" result_units=mg/L value_observed=0.05
molecule="CCCCCCCCCCCCCCC[C@@H]1CC(=O)NC(C(C)O)C(=O)NC(C)C(=O)NC(Cc2ccc(O)cc2)C(=O)NC(C(C)C)C(=O)N2CC(O)CC2C(=O)NC(C(C)O)C(=O)NC(C(C)O)C(=O)N2CCC(O)C2C(=O)NC(C(O)CC(N)=O)C(=O)NCC(=O)NC(C(C)O)C(=O)NC(CCCN)C(=O)N1C (some centres unmarked) [Aerothricin 95] (cyclo(G[ξT][ξOrn][X15][ξT][ξA][ξY][ξV][ξHyp][ξT][ξT][X1][X2]))" target_or_system="Aspegillus fumigatus CF1003" result_units=mg/L value_observed=0.10
molecule="CCCCCCCCCCCCC[C@@H]1CC(=O)NC(C(C)O)C(=O)NC(C)C(=O)NC(Cc2ccc(O)cc2)C(=O)NC(C(C)C)C(=O)N2CC(O)CC2C(=O)NC(C(C)O)C(=O)NC(C(C)O)C(=O)N2CCC(O)C2C(=O)NC(C(O)CC(N)=O)C(=O)NCC(=O)NC(C(C)O)C(=O)NC(CCCN(CCCN)C(=O)[C@@H](N)CCCN)C(=O)O1 (some centres unmarked) [Aerothricin 132] ([ξT][ξA][ξY][ξV][ξHyp][ξT][ξT][X1][X2]G[ξT][X6]; linker N-C via X4)" target_or_system="Aspegillus fumigatus CF1003" result_units=mg/L value_observed=0.10
molecule="CCCCCCCCCCCCC[C@@H]1CC(=O)NC(C(C)O)C(=O)NC(C)C(=O)NC(Cc2ccc(O)cc2)C(=O)NC(C(C)C)C(=O)N2CC(O)CC2C(=O)NC(C(C)O)C(=O)NC(C(C)O)C(=O)N2CCC(O)C2C(=O)NC(C(O)CC(N)=O)C(=O)NCC(=O)NC(C(C)O)C(=O)NC(CCCN(CCCN)C(=O)C(CCCN)NCCCN)C(=O)O1 (some centres unmarked) [Aerothricin 136] ([ξT][ξA][ξY][ξV][ξHyp][ξT][ξT][X1][X2]G[ξT][X3](X14); linker N-C via X4)" target_or_system="Aspegillus fumigatus CF1003" result_units=mg/L value_observed=0.28
molecule="CCCCCCCCCCCCC[C@@H]1CC(=O)NC(C(C)O)C(=O)NC(C)C(=O)NC(Cc2ccc(O)cc2)C(=O)NC(C(C)C)C(=O)N2CC(O)CC2C(=O)NC(C(C)O)C(=O)NC(C(C)O)C(=O)N2CCC(O)C2C(=O)NC(C(O)CCN)C(=O)NCC(=O)NC(C(C)O)C(=O)NC(CCCN)C(=O)O1 (some centres unmarked) [Aerothricin 31] ([ξT][ξA][ξY][ξV][ξHyp][ξT][ξT][X1][ξOrn(3-OH)]G[ξT][ξOrn]; linker N-C via X4)" target_or_system="Aspegillus fumigatus CF1003" result_units=mg/L value_observed=0.49
molecule="CCCCCCCCCCCCCCCNC(=O)[C@@H]1CC(=O)NC(C(C)O)C(=O)NC(C)C(=O)NC(Cc2ccc(O)cc2)C(=O)NC(C(C)C)C(=O)N2CC(O)CC2C(=O)NC(C(C)O)C(=O)NC(C(C)O)C(=O)N2CCC(O)C2C(=O)NC(C(O)CC(N)=O)C(=O)NCC(=O)NC(C(C)O)C(=O)NC(CCCN(C)C)C(=O)N1 (stereo partly drawn) [Aerothricin 75] ([ξT][ξA][ξY][ξV][ξHyp][ξT][ξT][X1][X2]G[ξT][X12]D-X13; lactam N-13)" target_or_system="Aspegillus fumigatus CF1003" result_units=mg/L value_observed=0.10
